Target: full-length ATR (Homo sapiens, UniProt Q13535)
Construct: in the presence of 5 nM full-length ATR
Sequence (Q13535 whole entry): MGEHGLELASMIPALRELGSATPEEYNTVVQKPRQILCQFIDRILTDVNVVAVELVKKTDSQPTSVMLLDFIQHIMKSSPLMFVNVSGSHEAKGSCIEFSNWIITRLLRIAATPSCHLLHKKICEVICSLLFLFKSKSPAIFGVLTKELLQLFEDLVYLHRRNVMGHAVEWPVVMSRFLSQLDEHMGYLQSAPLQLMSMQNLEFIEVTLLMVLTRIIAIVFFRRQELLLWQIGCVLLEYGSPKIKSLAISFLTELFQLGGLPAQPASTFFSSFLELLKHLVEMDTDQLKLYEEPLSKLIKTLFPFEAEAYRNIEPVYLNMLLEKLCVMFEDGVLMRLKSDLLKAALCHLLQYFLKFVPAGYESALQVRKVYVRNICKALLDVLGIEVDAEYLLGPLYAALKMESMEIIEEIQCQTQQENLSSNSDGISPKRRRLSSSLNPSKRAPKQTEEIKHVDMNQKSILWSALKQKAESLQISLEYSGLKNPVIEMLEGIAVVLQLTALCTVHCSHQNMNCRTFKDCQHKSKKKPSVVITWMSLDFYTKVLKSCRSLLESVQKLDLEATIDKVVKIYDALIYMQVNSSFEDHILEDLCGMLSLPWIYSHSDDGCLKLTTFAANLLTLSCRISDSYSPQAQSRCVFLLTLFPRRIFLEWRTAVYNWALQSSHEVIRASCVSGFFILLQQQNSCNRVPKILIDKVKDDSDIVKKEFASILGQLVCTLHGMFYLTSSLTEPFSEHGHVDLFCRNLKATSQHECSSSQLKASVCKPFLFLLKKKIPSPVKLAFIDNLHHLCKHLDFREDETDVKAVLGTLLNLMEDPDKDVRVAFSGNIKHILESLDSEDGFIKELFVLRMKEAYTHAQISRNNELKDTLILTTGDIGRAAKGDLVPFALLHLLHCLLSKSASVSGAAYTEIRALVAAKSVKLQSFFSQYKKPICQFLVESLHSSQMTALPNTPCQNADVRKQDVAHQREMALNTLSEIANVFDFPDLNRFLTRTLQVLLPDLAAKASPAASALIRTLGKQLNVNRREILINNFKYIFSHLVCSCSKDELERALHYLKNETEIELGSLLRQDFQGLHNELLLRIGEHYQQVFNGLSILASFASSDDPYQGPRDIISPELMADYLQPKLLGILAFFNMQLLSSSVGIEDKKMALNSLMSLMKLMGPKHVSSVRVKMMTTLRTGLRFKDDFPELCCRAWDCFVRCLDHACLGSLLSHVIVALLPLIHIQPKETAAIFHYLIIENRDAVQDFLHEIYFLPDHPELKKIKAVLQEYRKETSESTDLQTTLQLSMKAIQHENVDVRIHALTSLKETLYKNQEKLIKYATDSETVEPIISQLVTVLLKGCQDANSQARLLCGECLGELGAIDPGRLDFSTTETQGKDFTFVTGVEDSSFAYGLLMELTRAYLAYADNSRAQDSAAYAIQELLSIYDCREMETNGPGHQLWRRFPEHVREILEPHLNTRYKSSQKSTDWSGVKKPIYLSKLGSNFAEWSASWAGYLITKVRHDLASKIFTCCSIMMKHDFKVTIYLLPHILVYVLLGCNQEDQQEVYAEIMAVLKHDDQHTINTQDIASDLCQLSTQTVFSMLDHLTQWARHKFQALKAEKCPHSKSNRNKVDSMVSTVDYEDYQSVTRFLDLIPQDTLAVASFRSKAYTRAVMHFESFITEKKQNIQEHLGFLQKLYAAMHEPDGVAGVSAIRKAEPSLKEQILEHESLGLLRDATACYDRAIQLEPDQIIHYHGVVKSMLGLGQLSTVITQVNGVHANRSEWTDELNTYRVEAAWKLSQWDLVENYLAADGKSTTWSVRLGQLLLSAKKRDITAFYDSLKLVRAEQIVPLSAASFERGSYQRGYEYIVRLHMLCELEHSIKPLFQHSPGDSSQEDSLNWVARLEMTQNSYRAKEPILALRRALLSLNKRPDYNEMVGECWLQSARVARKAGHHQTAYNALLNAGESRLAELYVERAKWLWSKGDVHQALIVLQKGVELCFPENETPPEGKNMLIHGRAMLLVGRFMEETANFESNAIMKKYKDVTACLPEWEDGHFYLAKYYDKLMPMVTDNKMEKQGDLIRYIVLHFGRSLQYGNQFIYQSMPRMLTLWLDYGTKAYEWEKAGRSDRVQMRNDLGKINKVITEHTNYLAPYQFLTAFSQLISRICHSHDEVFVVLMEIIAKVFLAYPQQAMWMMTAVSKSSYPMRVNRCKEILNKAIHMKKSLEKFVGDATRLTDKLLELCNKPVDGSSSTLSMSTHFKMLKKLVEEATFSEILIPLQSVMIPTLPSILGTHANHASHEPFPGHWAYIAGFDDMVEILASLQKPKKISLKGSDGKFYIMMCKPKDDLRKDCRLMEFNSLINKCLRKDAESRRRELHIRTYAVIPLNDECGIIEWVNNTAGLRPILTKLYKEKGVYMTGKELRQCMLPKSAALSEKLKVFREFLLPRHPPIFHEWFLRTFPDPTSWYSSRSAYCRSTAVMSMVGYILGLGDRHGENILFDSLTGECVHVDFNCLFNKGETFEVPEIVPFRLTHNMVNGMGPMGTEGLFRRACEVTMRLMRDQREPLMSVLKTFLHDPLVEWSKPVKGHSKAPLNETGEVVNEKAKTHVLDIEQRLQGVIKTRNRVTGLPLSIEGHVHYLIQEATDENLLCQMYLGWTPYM
Test: ATR Inhibition Assay (radioactive-phosphate incorporation)
Settings: Ki(app); 5 nM full-length ATR, 10 μM ATP, 800 μM target peptide, 25° C.
pKi: −log10 of the molar value.
test.readout: pKi

In [3]: df
Out[3]:
                                 smiles_str                              study_target        result
0  CNCc1ccc(-c2nnc(-c3nc(N4CCC[C@@H]4C)cnc3N)o2)cc1  full-length ATR (Homo sapiens, UniProt Q13535)  6.00 to 7.00
1  Nc1ncc(C2=CCN(S(=O)(=O)Cc3ccccc3)CC2)nc1-c1nnc(-c2ccccc2)o1  full-length ATR (Homo sapiens, UniProt Q13535)        > 7.00
2  CCS(=O)(=O)N1CCN(c2cnc(N)c(-c3nc4ccccc4[nH]3)n2)CC1  full-length ATR (Homo sapiens, UniProt Q13535)  6.00 to 7.00
3  Nc1ncc(C2=CCN(C(=O)C3CC3)CC2)nc1-c1nnc(-c2ccccc2)o1  full-length ATR (Homo sapiens, UniProt Q13535)        > 7.00
